Values were extracted from paper PMC8044163.

- System: murine dermal fibroblasts
- assay.name: RNA-Seq of newborn murine dermal fibroblasts
- Assay type: cell-based, mouse
- details: 10^−7 M, 24 h
quantity.name: Med9os expression level
Answers are plain numbers.

compound="C=C1/C(=C\\C=C2/CCC[C@]3(C)[C@@H]([C@H](C)CCCC(C)(C)O)CC[C@@H]23)C[C@@H](O)C[C@@H]1O [1,25(OH)2D3, reference compound]" meas_value=0.7826
compound="CC(C)CCC[C@](C)(O)[C@H]1CC[C@H]2[C@@H]3CC=C4C[C@@H](O)CC[C@]4(C)[C@H]3CC[C@@]21C [20(OH)C, 20-hydroxycholesterol, reference compound]" meas_value=0.3191
compound="C=C1C(=CC=C2CCCC3(C)C2CCC3C(C)(O)CC(O)CC(C)C)CC(O)CC1O (stereo not shown) [1,20,23(OH)3D3]" meas_value=0.7829

We next turn to a different compound, shown below.
Challenge: Which Med9os expression level value is on record for C=C1CCC(O)CC1=CC=C1CCCC2(C)C1CCC2C(C)(O)CC(O)CC(C)C (stereo not shown) [20,23(OH)2D3] ?
Response given: 0.7965
